settings: in formic acid, 306.75 K

| molecule | solubility (mole fraction) |
| --- | --- |
| OC1OC[C@@H](O)[C@H](O)[C@H]1O (stereo partly specified) | 0.161 |

* * *

conditions: in formic acid, 303.25 K
outcome-measure: solubility (mole fraction)

| compound | measurement |
| --- | --- |
| OC1OC[C@@H](O)[C@H](O)[C@H]1O (stereo partly specified) | 0.146 |

* * *

settings: in formic acid, 311.65 K
outcome-measure: solubility (mole fraction)

| compound | outcome-measure | measurement |
| --- | --- | --- |
| OC1OC[C@@H](O)[C@H](O)[C@H]1O (stereo partly specified) | solubility (mole fraction) | 0.182 |
